System: MT-4 cells
protocol notes: Cytotoxicity test in MT-4 cells (MTT method)
Format: cell-based
measurement context: human
param class (str): category from CC60 (μM) ** : concentration at 50% cell damage with respect to MT-4 cells; see ranges low value = under 20 µM, medium value = from 20 µM up to 40 µM, high value = 40 µM and over

Prompt line: Input Cc1nc2[nH]c(C)c(C)c2c(-c2ccc(Cl)cc2)c1C(OC(C)(C)C)C(=O)O (centres unmarked) ; output its category
Response line: high value

Prompt line: Lab note: sort Cc1nc2c(c(C)c(C)n2CC2CC2)c(-c2cc(F)c3c(c2C)CCCO3)c1[C@H](OC(C)(C)C)C(=O)O into the matching CC60 (μM) ** : concentration at 50% cell damage with respect to MT-4 cells band.
Response line: low value

Prompt line: # bin lookup: classify Cc1nc2c(c(C)c(C)n2Cc2ccccn2)c(-c2ccc(Cl)cc2)c1C(OC(C)(C)C)C(=O)O (centres unmarked) by its CC60 (μM) ** : concentration at 50% cell damage with respect to MT-4 cells
Response line: high value

Prompt line: Input Cc1nc2c(c(C)c(C)n2Cc2ccsc2)c(-c2ccc(Cl)cc2)c1[C@H](OC(C)(C)C)C(=O)O ; output its category
Response line: low value

Prompt line: Lab note: which band did Cc1nc2c(c(C)c(C)n2CC2CC2(F)F)c(-c2ccc(Cl)cc2)c1[C@H](OC(C)(C)C)C(=O)O (some centres unmarked) land in?
Response line: low value

Prompt line: In plain terms, what class is Cc1nc2c(c(C)c(C)n2Cc2cocn2)c(-c2ccc(Cl)cc2)c1[C@H](OC(C)(C)C)C(=O)O ?
Response line: medium value

Prompt line: Returns: class label. Input: Cc1nc2c(c(C)c(C)n2Cc2cncs2)c(-c2ccc(Cl)cc2)c1[C@H](OC(C)(C)C)C(=O)O
Response line: medium value

Prompt line: Lab note: which band did CCn1c(C)c(C)c2c(-c3ccc(Cl)cc3)c([C@@H](OC(C)(C)C)C(=O)O)c(C)nc21 land in?
Response line: medium value

Prompt line: For this compound, which bin applies? Cc1nc2c(c(C)c(C)n2CC2CCC2)c(-c2ccc(Cl)cc2)c1[C@H](OC(C)(C)C)C(=O)O
Response line: low value

Prompt line: Would you mind sorting C#CCn1c(C)c(C)c2c(-c3ccc(Cl)cc3)c(C(OC(C)(C)C)C(=O)O)c(C)nc21 (centres unmarked) into the appropriate category?
Response line: low value

Prompt line: // bin(item) where item = Cc1nc2c(c(C)c(C)n2CCN2CCCC2)c(-c2ccc(Cl)cc2)c1[C@H](OC(C)(C)C)C(=O)O
Response line: high value

Prompt line: Which CC60 (μM) ** : concentration at 50% cell damage with respect to MT-4 cells category applies to Cc1nc2c(c(C)c(C)n2CC(=O)N(C)C)c(-c2ccc(Cl)cc2)c1[C@H](OC(C)(C)C)C(=O)O here?
Response line: high value

Prompt line: Each compound maps to one class by CC60 (μM) ** : concentration at 50% cell damage with respect to MT-4 cells. Which class for CCn1c(C)c(C)c2c(-c3ccc(Cl)cc3)c(C(OC(C)(C)C)C(=O)O)c(C)nc21 (centres unmarked) ?
Response line: high value

Prompt line: Band of Cc1nc2c(c(C)c(C)n2CCCC#N)c(-c2ccc(Cl)cc2)c1[C@H](OC(C)(C)C)C(=O)O ?
Response line: low value

Prompt line: Which band does Cc1nc2c(c(C)c(C)n2Cc2cccc(Cl)c2)c(-c2ccc(Cl)cc2)c1C(OC(C)(C)C)C(=O)O (centres unmarked) fall in?
Response line: low value

Prompt line: Entry Cc1nc2c(c(C)c(C)n2CCC#N)c(-c2ccc(Cl)cc2)c1[C@H](OC(C)(C)C)C(=O)O belongs to which category?
Response line: medium value

Prompt line: Band of CCn1c(C)c(C)c2c(-c3ccc(Cl)cc3)c([C@H](OC(C)(C)C)C(=O)O)c(C)nc21 ?
Response line: medium value

Prompt line: Dear colleague, I would appreciate it if you could identify the bin for Cc1nc2c(c(C)c(C)n2Cc2cncnc2)c(-c2ccc(Cl)cc2)c1[C@H](OC(C)(C)C)C(=O)O and reply at your convenience.
Response line: high value

Prompt line: Which bin, given its CC60 (μM) ** : concentration at 50% cell damage with respect to MT-4 cells, does Cc1nc2c(c(C)c(C)n2CC(F)(F)F)c(-c2ccc(Cl)cc2)c1[C@H](OC(C)(C)C)C(=O)O occupy?
Response line: low value

Prompt line: Tag the class for Cc1nc2c(c(C)c(C)n2CC2(C#N)CC2)c(-c2ccc(Cl)cc2)c1[C@H](OC(C)(C)C)C(=O)O
Response line: low value

Prompt line: Which bin should I file Cc1nc2c(c(C)c(C)n2CCN(C)C)c(-c2ccc(Cl)cc2)c1[C@H](OC(C)(C)C)C(=O)O under?
Response line: high value

Prompt line: Kindly state the category for this compound: Cc1nc2c(c(C)c(C)n2CC(C)C)c(-c2ccc(Cl)cc2)c1C(OC(C)(C)C)C(=O)O (centres unmarked)
Response line: low value

Prompt line: Any idea which band Cc1nc2c(c(C)c(C)n2CC2(O)CC2)c(-c2ccc(Cl)cc2)c1[C@H](OC(C)(C)C)C(=O)O is in?
Response line: medium value

Prompt line: Which category does the recorded CC60 (μM) ** : concentration at 50% cell damage with respect to MT-4 cells put Cc1nc2c(c(C)c(C)n2CCC(C)C)c(-c2ccc(Cl)cc2)c1C(OC(C)(C)C)C(=O)O (centres unmarked) in?
Response line: low value

Prompt line: Determine which band this compound sits in: Cc1nc2c(c(C)c(C)n2Cc2ccoc2)c(-c2ccc(Cl)cc2)c1[C@H](OC(C)(C)C)C(=O)O
Response line: low value

Prompt line: Could you tell me which band CCCCn1c(C)c(C)c2c(-c3ccc(Cl)cc3)c(C(OC(C)(C)C)C(=O)O)c(C)nc21 (centres unmarked) belongs to?
Response line: high value

Prompt line: Which category fits this record: Cc1nc2c(c(C)c(C)n2CCC#N)c(-c2ccc(Cl)cc2)c1[C@@H](OC(C)(C)C)C(=O)O
Response line: high value

---

System: MT-4 cells
protocol notes: Cytotoxicity test in MT-4 cells (MTT method)
Format: cell-based
measurement context: human
measurement label: CC60 (μM) ** : concentration at 50% cell damage with respect to MT-4 cells (µM)
The reply should contain only the number, in µM.

Prompt line: Record lookup: for MT-4 cells, what CC60 (μM) ** : concentration at 50% cell damage with respect to MT-4 cells belongs to COc1ccc(Cn2c(C)c(C)c3c(-c4ccc(Cl)cc4)c(C(OC(C)(C)C)C(=O)O)c(C)nc32)cc1 (stereo not shown) ?
Response line: 18.04

Prompt line: Form entry - test system: MT-4 cells; read-out: CC60 (μM) ** : concentration at 50% cell damage with respect to MT-4 cells; molecule: Cc1nc2c(c(C)c(C)n2Cc2nccs2)c(-c2ccc(Cl)cc2)c1[C@H](OC(C)(C)C)C(=O)O
Response line: 48.57

Prompt line: For MT-4 cells, provide CC60 (μM) ** : concentration at 50% cell damage with respect to MT-4 cells of CCCn1c(C)c(C)c2c(-c3ccc(Cl)cc3)c(C(OC(C)(C)C)C(=O)O)c(C)nc21 (stereo not shown) please.
Response line: 20.7

Prompt line: Test system MT-4 cells; read-out CC60 (μM) ** : concentration at 50% cell damage with respect to MT-4 cells; what value for Cc1nc2c(c(C)c(C)n2CCN2CCCC2=O)c(-c2ccc(Cl)cc2)c1[C@H](OC(C)(C)C)C(=O)O ?
Response line: 49.2

---

System: MT-4 cells
protocol notes: Cytotoxicity test in MT-4 cells (MTT method)
Format: cell-based
measurement context: human
measurement label: CC60 (μM) ** : concentration at 50% cell damage with respect to MT-4 cells

Prompt line: Tell me reported CC60 (μM) ** : concentration at 50% cell damage with respect to MT-4 cells for Cc1nc2c(c(C)c(C)n2Cc2ccccc2)c(-c2ccc(Cl)cc2)c1C(OC(C)(C)C)C(=O)O (stereo not shown) , tested with MT-4 cells.
Response line: 17 µM

Prompt line: // lookup CC60 (μM) ** : concentration at 50% cell damage with respect to MT-4 cells | system=MT-4 cells | key= Cc1nc2c(c(C)c(C)n2CC2CC2)c(-c2ccc(Cl)cc2)c1[C@@H](OC(C)(C)C)C(=O)O
Response line: 100 µM

Prompt line: // lookup CC60 (μM) ** : concentration at 50% cell damage with respect to MT-4 cells | system=MT-4 cells | key= Cc1nc2c(c(C)c(C)n2CN2C(=O)c3ccccc3C2=O)c(-c2ccc(Cl)cc2)c1C(OC(C)(C)C)C(=O)O (stereo not shown)
Response line: >179 µM

Prompt line: Item Cc1nc2c(c(C)c(C)n2Cc2ccncc2)c(-c2ccc(Cl)cc2)c1[C@H](OC(C)(C)C)C(=O)O with MT-4 cells - CC60 (μM) ** : concentration at 50% cell damage with respect to MT-4 cells?
Response line: 24.49 µM

Entry source: patent US9499537B2
